Entries and their IC50 values follow.
# assay_system: human EHMT2 913-1193 (Homo sapiens)
# Construct: recombinant purified human EHMT2 913-1193, Viva; purchased Viva
# assay_explanation: EHMT2 enzyme assay on histone peptide substrate (EHMT2 PEP)
# Format: biochemical
# test_settings: Table II; read-out: EHMT2 PEP (IC50 μM)

Sample records with IC50:
COc1ccc(Nc2nccc(NCC3CCNCC3)n2)cc1OCCCN1CCCC1; < 0.1 µM
COc1ccc(Nc2nccc(N3CCc4[nH]ncc4C3)n2)cc1OCCCN1CCCC1; > 10 µM
COc1ccc(Nc2cc(NCC3CCNCC3)ccn2)cc1OCCCN1CCCC1; < 0.1 µM
COc1ccc(Nc2nccc(N3CCC(C)(O)CC3)n2)cc1OCCCN1CCCC1; > 10 µM

Now look at this one.
Query: Requested read-out: IC50. Entry: COc1cnc(Nc2cc(NCC3CCN(C(C)=O)CC3)ccn2)cc1OCCCN1CCCC1
Reply: 0.1 to 1 µM

###

# assay_system: EHMT2 (Homo sapiens, UniProt Q96KQ7)
# Construct: host or cells: MDA-MB-231
# Sequence (Q96KQ7 1-1210): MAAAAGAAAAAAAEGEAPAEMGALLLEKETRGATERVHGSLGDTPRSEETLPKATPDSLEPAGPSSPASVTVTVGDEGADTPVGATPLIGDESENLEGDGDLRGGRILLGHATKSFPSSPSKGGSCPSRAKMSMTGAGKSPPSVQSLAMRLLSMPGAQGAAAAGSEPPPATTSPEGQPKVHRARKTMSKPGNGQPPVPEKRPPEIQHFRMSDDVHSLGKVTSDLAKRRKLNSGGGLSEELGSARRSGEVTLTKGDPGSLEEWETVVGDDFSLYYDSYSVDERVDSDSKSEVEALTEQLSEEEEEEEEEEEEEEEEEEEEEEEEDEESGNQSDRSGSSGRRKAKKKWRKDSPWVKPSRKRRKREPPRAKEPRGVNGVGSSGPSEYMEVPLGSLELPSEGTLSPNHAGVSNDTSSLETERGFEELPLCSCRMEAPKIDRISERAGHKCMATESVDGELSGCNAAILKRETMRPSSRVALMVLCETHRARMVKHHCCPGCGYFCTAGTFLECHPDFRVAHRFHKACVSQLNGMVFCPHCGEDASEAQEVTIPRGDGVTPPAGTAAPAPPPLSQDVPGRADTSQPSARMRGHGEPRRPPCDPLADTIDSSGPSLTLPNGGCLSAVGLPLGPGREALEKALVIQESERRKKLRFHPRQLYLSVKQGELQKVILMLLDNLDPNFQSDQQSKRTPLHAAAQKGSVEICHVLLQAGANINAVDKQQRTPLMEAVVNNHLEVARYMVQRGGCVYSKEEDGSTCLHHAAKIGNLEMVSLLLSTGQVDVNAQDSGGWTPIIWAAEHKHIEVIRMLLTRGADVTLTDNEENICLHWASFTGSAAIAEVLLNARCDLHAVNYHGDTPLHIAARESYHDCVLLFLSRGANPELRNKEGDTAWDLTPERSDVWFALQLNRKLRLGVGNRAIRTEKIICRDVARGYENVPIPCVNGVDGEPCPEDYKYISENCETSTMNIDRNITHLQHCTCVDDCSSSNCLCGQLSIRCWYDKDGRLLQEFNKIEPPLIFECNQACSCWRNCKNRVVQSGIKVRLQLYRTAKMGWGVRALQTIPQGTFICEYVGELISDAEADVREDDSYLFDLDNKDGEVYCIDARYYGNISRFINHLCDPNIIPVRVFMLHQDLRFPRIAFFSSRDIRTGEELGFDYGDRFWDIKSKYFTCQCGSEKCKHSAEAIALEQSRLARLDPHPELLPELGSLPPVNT
# assay_explanation: MDA-MB-231 H3K9me2 in-cell Western assay (EHMT2 ICW)
# Format: cell-based
# test_settings: Table VI; read-out: EHMT2 ICW IC50
pIC50: −log10 of the molar value.
In this section we review reported pIC50 values for a set of compounds.

COc1cnc(Nc2nccc3nccn23)cc1OC[C@@H]1CCNC1; < 5.00
CNc1cc2nccn2c(Nc2cc(OCCCN3CCCC3)c(OC)cn2)n1; 5.00 to 6.00
CNc1ccnc(Nc2ccc(OC)c(OC[C@@H](C)CN3CCC3)c2)n1; 5.00 to 6.00

Query: Recorded pIC50 of COc1cc2c(C3CN(C)C3)nc(C)nc2cc1OCCCN1CCCC1 , please.
Reply: < 5.00

Query: Fill blank: measured pIC50 of the compound CNc1cc(C)nc(Nc2ccc(OC)c(OCC(O)CN3CCCC3)c2)n1 (stereo in doubt) is ____.
Reply: 6.00 to 7.00

Query: Which pIC50 reading was recorded for the compound COc1cc2c(C3CCN(C(C)C)CC3)nc(C)nc2cc1OCCCN1CCCC1 ?
Reply: < 5.00

Query: Field request: pIC50 | item: CNc1cc(C)nc(Nc2cnc(OC)c(OC[C@H](O)CN3CCCC3)c2)n1
Reply: 5.00 to 6.00

Query: Reported pIC50 for CCN1CC[C@@H](COc2cc3nc(C)nc(C4CCN(C(C)C)CC4)c3cc2OC)C1 : what is it?
Reply: < 5.00

###

# assay_system: EHMT2 (Homo sapiens)
# Construct: host or cells: MDA-MB-231
# Sequence (Q96KQ7 1-1210): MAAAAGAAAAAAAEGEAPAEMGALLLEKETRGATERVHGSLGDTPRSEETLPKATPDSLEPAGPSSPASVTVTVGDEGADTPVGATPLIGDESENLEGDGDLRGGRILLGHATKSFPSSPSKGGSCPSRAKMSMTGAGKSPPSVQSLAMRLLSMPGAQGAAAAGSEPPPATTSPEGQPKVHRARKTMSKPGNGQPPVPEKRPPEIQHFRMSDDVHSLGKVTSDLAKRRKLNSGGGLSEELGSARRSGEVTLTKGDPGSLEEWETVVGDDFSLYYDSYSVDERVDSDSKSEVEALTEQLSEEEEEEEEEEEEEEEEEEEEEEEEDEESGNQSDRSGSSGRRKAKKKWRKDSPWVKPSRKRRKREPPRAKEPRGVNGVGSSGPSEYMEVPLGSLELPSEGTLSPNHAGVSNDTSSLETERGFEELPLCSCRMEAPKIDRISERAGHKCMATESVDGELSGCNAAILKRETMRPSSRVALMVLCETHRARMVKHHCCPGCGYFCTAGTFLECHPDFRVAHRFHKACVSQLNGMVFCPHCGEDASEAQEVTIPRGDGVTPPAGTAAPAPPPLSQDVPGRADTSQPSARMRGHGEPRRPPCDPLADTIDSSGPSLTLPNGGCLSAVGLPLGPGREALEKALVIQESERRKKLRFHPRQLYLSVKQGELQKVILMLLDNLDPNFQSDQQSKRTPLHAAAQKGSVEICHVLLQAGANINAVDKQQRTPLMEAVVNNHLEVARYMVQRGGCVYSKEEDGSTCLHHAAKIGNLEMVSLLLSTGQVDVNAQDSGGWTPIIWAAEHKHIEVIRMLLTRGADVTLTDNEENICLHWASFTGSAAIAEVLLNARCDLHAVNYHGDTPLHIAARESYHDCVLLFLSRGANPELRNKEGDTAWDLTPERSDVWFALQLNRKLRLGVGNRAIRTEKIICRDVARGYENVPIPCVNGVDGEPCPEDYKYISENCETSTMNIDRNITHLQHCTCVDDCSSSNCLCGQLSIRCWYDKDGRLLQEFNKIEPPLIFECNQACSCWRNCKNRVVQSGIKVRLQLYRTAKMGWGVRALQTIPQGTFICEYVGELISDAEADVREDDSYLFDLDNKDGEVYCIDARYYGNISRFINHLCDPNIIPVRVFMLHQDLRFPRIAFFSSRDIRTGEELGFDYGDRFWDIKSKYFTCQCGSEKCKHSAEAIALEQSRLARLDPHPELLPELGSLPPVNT
# assay_explanation: MDA-MB-231 H3K9me2 in-cell Western assay (EHMT2 ICW)
# Assay type: cell-based
# test_settings: Table III; MDA-MB-231 H3K9me2 in-cell Western; read-out: EHMT2 ICW (IC50 μM)
property_label: IC50

Some solved entries appear below for comparison.
COc1ccc(Nc2cc3c(cn2)ncn3C)cc1OCCCN1CCCC1 [Compound 258]; > 10 µM
CNc1cc(C(F)(F)F)nc(Nc2ccc(OC)c(OCCCN3CCCC3)c2)n1 [Compound 362]; > 10 µM
CNc1cc(C)nc(Nc2ccc(OC)c(OCC3CCN(C)C3)c2)n1 (single isomer, unassigned) [Compound 418]; < 0.1 µM
CCc1cc(NC)nc(Nc2ccc(OC)c(OCCCN3CC[C@@H](F)C3)c2)n1 [Compound 385]; 1 to 10 µM
CNc1cc(C2CC2)nc(Nc2ccc(OC)c(OCCCN3CCCC3)c2)n1 [Compound 320]; 0.1 to 1 µM

Query: Recorded IC50 for COc1ccc(Nc2nccc(NCC(F)(F)F)n2)cc1OCCCN1CCCC1 [Compound 392] , please?
Reply: 1 to 10 µM

Query: Fill in the blank: the reported IC50 of CNc1ccnc(Nc2cccc(COCCN3CCCC3)c2)n1 [Compound 383] is ____.
Reply: > 10 µM
